- Test system: CAKI-1
- PROCEDURE TEXT: NCI tumour cell line growth inhibition, 48 h
Calls of active or inactive are those of the source. Rule as the data show it: active = GI50 up to about 1.1 µM and inactive = higher.
METRIC NAME: GI50

For reference, reported GI50 for O=C1OC(O)c2cc3c(cc21)OCO3 (stereo unspecified) stands at > 100 µM (inactive)

For reference, reported GI50 for C/C=C1/CCC2c3[nH]c4ccccc4c3CCN2C1 (stereo unspecified) stands at 37.2 µM (inactive)

* * *

- System: HL-60
- PROCEDURE TEXT: NCI tumour cell line growth inhibition, 48 h
The source made the active and inactive calls. No stated cut-off is given here; in the data, active = GI50 up to about 1.1 µM and inactive = higher.
Bench note: report the call from 1 (yes) = active, 0 (no) = inactive

| COMPOUND | CATEGORY LABEL |
| --- | --- |
| COc1cc2cc(C(=O)N3CC(CCl)c4ccc(NCCN)cc43)[nH]c2c(OC)c1OC (stereo not drawn) | 1 (yes) |
| O=C(CCCC(=O)Nc1ccc(Cl)cc1Cl)CC(=O)c1ccc2ccccc2c1 | 0 (no) |

From here, focus on the item given below.
Task: Test call for this compound, please: CC(C)CC1CC2C(=O)N(c3ccccc3)C(=O)C2c2[nH]c3ccccc3c21 (stereo not drawn)
Result: 0 (no)

Where these numbers come from: ChEMBL document CHEMBL1201862
